system: SNB-78; experiment: NCI tumour cell line growth inhibition, 48 h
Calls of active or inactive are those of the source. No stated cut-off is given here; in the data, active = GI50 up to about 1.1 µM and inactive = higher.
Measured Endpoint: GI50

Worked cases, GI50 given:
O=C(Cn1cc(I)c(C(=O)NCC(O)CO)n1)NCC(O)CO (stereo unspecified)    > 100 µM (inactive)
O=C(NNC(=O)c1cc(/C=C/c2cccc([N+](=O)[O-])c2)nc(S)n1)Nc1ccc(Cl)cc1    > 100 µM (inactive)
CN1N=C2c3ccccc3CC[C@H]2C1c1ccccc1 (stereo partly specified)    83.9 µM (inactive)
COC(=O)C(Cc1nc2ccc(Cl)cc2nc1O)/C(=N/NC(N)=O)C(=O)Nc1ccc(Cl)cc1 (stereo unspecified)    > 100 µM (inactive)
COC1OC(CBr)C(OC(=O)c2ccccc2)C(O)C1Br (stereo unspecified)    > 100 µM (inactive)

### Prompt Would you mind telling me what GI50 value was observed for C=C=C[P+](c1ccccc1)(c1ccccc1)c1ccccc1 ?
### Response 16.9 µM (inactive)

### Prompt Item: O=C(CSc1nnc(Cc2ccccc2)o1)Nc1cccc(Cl)c1
### Response > 100 µM (inactive)

### Prompt One more compound: Cc1cc2c(c(C#N)c1C)NC(=O)C(CC(=O)O)C2=O (stereo unspecified)
### Response > 100 µM (inactive)

### Prompt Follow-up entry: Cc1cccc(C(C)C)c1N1C(=O)C(=O)C(c2nc3ccccc3o2)C(=O)C1=O
### Response > 100 µM (inactive)

### Prompt One more compound: COC(=O)N/N=C(/CC1(O)C(=O)Nc2ccc([N+](=O)[O-])cc21)c1ccccc1 (stereo unspecified)
### Response 20.9 µM (inactive)

### Prompt Now try COc1cc(NC(C)CCCN)c2ncccc2c1 (stereo unspecified) [PRIMAQUINE PHOSPHATE] .
### Response > 100 µM (inactive)

---

test system: NCI-H522; assay: NCI tumour cell line growth inhibition, 48 h
Calls of active or inactive are those of the source. Cut-off read from the data, not from the text of the source: active = GI50 up to about 1.1 µM and inactive = higher.
Hello, when you answer, please use one of the following outcomes: y for active, n for inactive

O=C(O)C(C(=O)C(=O)C(C(=O)O)c1ccc(Cl)cc1)c1ccc(Cl)cc1 (stereo unspecified)    n
c1c2c(cc(-n3nnc4c3CCCCCC4)c1-n1nnc3c1CCCCCC3)CCCCCC2    y
CCCCCCCCC(O)c1ccc(/C=C\C(O)CCCC(=O)O)s1 (stereo unspecified)    n

### Prompt Could you please tell me the result logged for COC(=O)C1=CC2OC13CC1CCC3(C2=O)C1(C)C (stereo unspecified) in this assay?
### Response n

### Prompt Same thing, different compound: Cc1cccc(C(C)C)c1N1C(=O)C(=O)C(c2nc3ccccc3o2)C(=O)C1=O
### Response n

### Prompt Same question for C[N+]1(C)C/C(=C\C=C\c2ccccc2)C(=O)/C(=C/C=C/c2ccccc2)C1 please.
### Response n

### Prompt Another compound to look at: COc1ccccc1Cc1ccc(C2C=CC3(CC(=O)C=C3C)C(=O)C2)o1 (stereo unspecified)
### Response n

### Prompt Can you handle CC1CC(c2ccccc2)Nc2nc3ccccc3n21 (stereo unspecified) next?
### Response n

### Prompt Repeat with Cn1c(-c2ccc[se]2)ccc1-c1ccc(CO)[se]1
### Response n

---

test system: UACC-62; experiment: NCI tumour cell line growth inhibition, 48 h
Activity calls are given as the source filed them. Cut-off read from the data, not from the text of the source: active = GI50 up to about 1.1 µM and inactive = higher.
In this section, each of the compounds is paired with its reported GI50.

### Prompt Look up GI50 for this compound: C/C(=N\NC(=O)c1ccccc1O)c1c(O)cc(C)oc1=O
### Response 25.6 µM (inactive)

### Prompt Try this compound next: COc1ccc([C@H]2C=C(c3cc(F)c(Cl)cc3Cl)NC(=S)N2)cc1
### Response 28.3 µM (inactive)

### Prompt Now give it for CCCC(=O)C1=C(O)C(Cc2c(O)c(C)c(O)c(C(=O)CCC)c2O)=C(O)C(C)(C)C1=O too.
### Response > 50 µM (inactive)

### Prompt Try this compound next: COc1ccccc1C1C(Cl)C(=O)N1n1cnc2ccccc2c1=O (stereo unspecified)
### Response > 100 µM (inactive)

### Prompt Do the same for CC(=O)c1cc(CC2Cc3cc4c(cc3C2=O)CCC4)cc2c1CCC2 (stereo unspecified) please
### Response > 100 µM (inactive)

### Prompt Cool, now O=C(Nc1ccc2cc3ccccc3cc2c1)c1cc2c(cc1Cl)Sc1nccn1S2(=O)=O
### Response 64.9 µM (inactive)

---

tested on: SR; assay: NCI tumour cell line growth inhibition, 48 h
Activity calls are given as the source filed them. Cut-off read from the data, not from the text of the source: active = GI50 up to about 1.1 µM and inactive = higher.
Tick one outcome: 1 = active, 0 = inactive

CC(C)(CN1CCCCC1)C(=O)/C=C/c1ccc(Cl)c(Cl)c1    0
O=C1OC(CC(=O)c2ccc(Cl)cc2)C(Cl)=C1Cl (centres undefined)    0
N#C/C(N)=N/c1ccccc1    0

### Prompt Which outcome was assigned to COc1ccc(C(=O)/C=C/c2cc(O)c(O)cc2F)c(OC)c1 in this test?
### Response 1

---

test system: ACHN; experiment: NCI tumour cell line growth inhibition, 48 h
Activity calls are given as the source filed them. No stated cut-off is given here; in the data, active = GI50 up to about 1.1 µM and inactive = higher. Where a SMILES comes first, the peptide text is derived from it. The star is where a group is joined. Boc = CC(C)(C)OC(=O)*
Can you answer with just one of these options? active, inactive

Past entries and their recorded results:
COC(=O)C1=CC2C(=O)OC1C1C(=O)NC(=O)C21 (stereo not drawn)    inactive
COc1cc(C2C(C(=O)O)=C(COC(C)=O)Oc3cc4c(cc32)OCO4)cc(OC)c1OC (stereo not drawn)    inactive
COC(=O)C/N=C1\NC(=S)N(Cc2ccc(OC)cc2)C12CCCC2    inactive
O=c1c(-c2ccc(O)cc2)coc2cc(O)cc(O)c12    inactive

### Prompt Lab log entry: CCOP(=O)(/C=C\n1cc(C)c(=O)[nH]c1=O)OCC — outcome as called in the assay?
### Response inactive

### Prompt Thanks! And CNC(=O)CNC(=O)C(NC(=O)CNC(=O)C1CCCN1C(=O)C(C)NC(=O)C(NC(=O)OC(C)(C)C)C(C)C)C(C)C (stereo not drawn) (Boc-VAPGVG-NHMe; configuration not given here) ?
### Response inactive

### Prompt Same question, CC(=O)c1ccc(NC(=O)COC(=O)c2cccc3c(=O)c4ccccc4[nH]c23)cc1 this time
### Response inactive

### Prompt Also check C=C1c2c(cc3c(c2O)c(=O)c2ccccc2n3C)OC1(C)C
### Response inactive

### Prompt Same for O=c1nc(NC(c2ccccc2)(c2ccccc2)c2ccccc2)ccn1CCO
### Response inactive

### Prompt Also need Cc1nn(-c2ccccc2)c(C)c1/C=N/N=C1\S/C(=C\c2ccc(Cl)cc2)C(=O)N1c1ccccc1 , thanks.
### Response inactive

### Prompt Cc1ccc(/C=C2\CCS(=O)(=O)c3ccccc3C2=O)cc1 ?
### Response inactive

### Prompt Check CC(C)(C)OC(=O)NC12C3C4C1C1C2C3C41NC(=O)OC(C)(C)C (stereo not drawn) too.
### Response inactive

### Prompt Queued: COC(=O)C(=O)C1(CCC(C)=O)c2ccccc2-c2c(C)ccc(C)c21 (stereo not drawn)
### Response inactive

### Prompt Entry to check: O=c1oc2ccccc2c2nc3ccccc3cc12
### Response inactive

### Prompt Then what about the compound COc1ccc(/C=N/Nc2nnc3c(n2)c2ccccc2c2nn(-c4ccccc4Cl)nc23)cc1 ?
### Response inactive

### Prompt Also Cc1cc(NC(=S)SCc2ccc(F)cc2)c([N+](=O)[O-])cc1C , if possible.
### Response inactive

### Prompt Another: Cn1c(=O)c2c3oc(=O)cc(O)c3c(=O)n3c4ccccc4n(c1=O)c23
### Response inactive

### Prompt Same question, CCOC(=O)[C@H]1Nc2ccccc2C2c3ccccc3CC21 (stereo partly drawn) this time
### Response inactive

---

tested on: K562; experiment: NCI tumour cell line growth inhibition, 48 h
Activity calls are given as the source filed them. No stated cut-off is given here; in the data, active = GI50 up to about 1.1 µM and inactive = higher.
Pick one: 1.0 (active), 0.0 (inactive)

CC[N+](CC)(CC)Cc1cc2ccccc2n1C(=O)OC    0.0
CC1(c2ccccc2)CC(c2ccccc2)=NO1 (stereo unspecified)    0.0
CC(C)NCCNC(=O)c1ccccc1Nc1c(Cl)cccc1Cl    0.0

### Prompt Call for entry c1ccc(CSc2ccccc2CN2CCN(Cc3ccccc3SCc3ccccc3)CCN(Cc3ccccc3SCc3ccccc3)CC2)cc1 :
### Response 1.0

### Prompt Input Cc1cc(C)nc(NS(=O)(=O)c2ccc(Nc3c4ccccc4nc4c(C(=O)NCCO)cccc34)cc2)n1
### Response 0.0

### Prompt Please answer likewise for CC(C)c1nc(Cl)c(Cl)c(Cl)n1
### Response 1.0

### Prompt For O=c1oc2ccccc2c2nc3ccccc3cc12 then?
### Response 0.0

### Prompt Try the molecule CC(=O)OCC1OC(n2c(C)c(/N=N/c3ccccc3)c(C)c(C#N)c2=S)C(OC(C)=O)C(OC(C)=O)C1OC(C)=O (stereo unspecified)
### Response 0.0

### Prompt Same for N#C/C(N)=N/c1ccccc1
### Response 0.0

### Prompt Consider next the molecule COC(=O)c1cc2c(cc1CC(Cc1ccc3c(c1)CCC3)C(=O)OC)CCC2 (stereo unspecified) in the same way.
### Response 0.0

### Prompt # iterate: Nc1ncnc2c1ncn2C(=O)NC12CC3CC(CC(C3)C1)C2
### Response 0.0
